systemTested: human TAS2R1 (Homo sapiens)
Construct: expressed in transfected cells; host or cells: HEK293T-Gα16gust44
experiment: Calcium imaging assay (FLIPR), HEK293T-Gα16gust44 cells transfected with human TAS2R1
Assay type: cell-based
settings: Time 118.781 s
Below, each of the compounds is paired with its reported RLU value.

| smilesString | unitDescriptor | RLU |
| --- | --- | --- |
| C[C@H](CCC(=O)O)[C@H]1CC[C@H]2[C@@H]3CC[C@@H]4C[C@H](O)CC[C@]4(C)[C@H]3C[C@H](O)[C@]12C | RLU | 397.129 |
| C[C@H](CCC(=O)NCCS(=O)(=O)O)[C@H]1CC[C@H]2[C@@H]3[C@H](O)C[C@@H]4C[C@H](O)CC[C@]4(C)[C@H]3C[C@H](O)[C@]12C | RLU | 311.101 |
| C[C@H](CCC(=O)NCC(=O)O)[C@H]1CC[C@H]2[C@@H]3[C@H](O)C[C@@H]4C[C@H](O)CC[C@]4(C)[C@H]3C[C@H](O)[C@]12C | RLU | 454.358 |
| C[C@H](CCC(=O)NCCS(=O)(=O)O)[C@H]1CC[C@H]2[C@@H]3CC[C@@H]4C[C@H](O)CC[C@]4(C)[C@H]3CC[C@]12C | RLU | 539.304 |

###

systemTested: mouse Tas2r144 (Mus musculus, UniProt Q7TQB8)
Construct: expressed in transfected cells; host or cells: HEK293T-Gα16gust44
Sequence (Q7TQB8 whole entry): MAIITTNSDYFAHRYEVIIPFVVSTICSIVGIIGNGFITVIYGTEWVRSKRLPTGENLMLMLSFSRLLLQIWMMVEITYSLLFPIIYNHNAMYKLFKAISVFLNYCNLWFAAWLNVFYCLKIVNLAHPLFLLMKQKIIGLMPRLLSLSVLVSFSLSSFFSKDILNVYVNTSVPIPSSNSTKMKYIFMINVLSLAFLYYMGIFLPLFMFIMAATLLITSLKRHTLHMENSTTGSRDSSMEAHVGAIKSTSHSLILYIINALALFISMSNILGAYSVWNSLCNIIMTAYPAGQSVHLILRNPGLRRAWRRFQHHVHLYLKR
experiment: Calcium imaging assay (FLIPR), HEK293T-Gα16gust44 cells transfected with mouse Tas2r144
Assay type: cell-based
settings: Time 80.781 s
measuredParameter: RLU (RLU)

| compound | systemTested | measuredParameter | unitDescriptor | endpointResult |
| --- | --- | --- | --- | --- |
| C[C@H](CCC(=O)NCCS(=O)(=O)O)[C@H]1CC[C@H]2[C@@H]3CC[C@@H]4C[C@H](O)CC[C@]4(C)[C@H]3CC[C@]12C [Taurolithocholic Acid, taurolithocholic acid] | mouse Tas2r144 (Mus musculus, UniProt Q7TQB8) | RLU | RLU | 460.032 |
| C[C@H](CCC(=O)NCCS(=O)(=O)O)[C@H]1CC[C@H]2[C@@H]3[C@H](O)C[C@@H]4C[C@H](O)CC[C@]4(C)[C@H]3C[C@H](O)[C@]12C [Taurocholic Acid, taurocholic acid] | mouse Tas2r144 (Mus musculus, UniProt Q7TQB8) | RLU | RLU | 551.232 |
| C[C@H](CCC(=O)O)[C@H]1CC[C@H]2[C@@H]3[C@H](O)C[C@@H]4C[C@H](O)CC[C@]4(C)[C@H]3C[C@H](O)[C@]12C [Cholic Acid, cholic acid] | mouse Tas2r144 (Mus musculus, UniProt Q7TQB8) | RLU | RLU | 620.522 |
| C[C@H](CCC(=O)NCC(=O)O)[C@H]1CC[C@H]2[C@@H]3[C@H](O)C[C@@H]4C[C@H](O)CC[C@]4(C)[C@H]3C[C@H](O)[C@]12C [Glycocholic Acid, glycocholic acid] | mouse Tas2r144 (Mus musculus, UniProt Q7TQB8) | RLU | RLU | 426.566 |

###

System: HEK293T-Gα16gust44 cells transfected with empty vector (mock)
experiment: Calcium imaging assay (FLIPR), empty vector control (mock)
Format: cell-based
settings: Mock, sheet TAS2R4; conc. 0,01 mM
Rule: Δ F/F below -0.0005 gives TRUE. Equal to or above -0.0005 gives FALSE.

| smilesString | qualitativeLabel |
| --- | --- |
| C[C@H](CCC(=O)O)[C@H]1CC[C@H]2[C@@H]3CC[C@@H]4C[C@H](O)CC[C@]4(C)[C@H]3C[C@H](O)[C@]12C | FALSE |
| C[C@H](CCC(=O)NCCS(=O)(=O)O)[C@H]1CC[C@H]2[C@@H]3CC[C@@H]4C[C@H](O)CC[C@]4(C)[C@H]3CC[C@]12C | TRUE |
| C[C@H](CCC(=O)O)[C@H]1CC[C@H]2[C@@H]3[C@H](O)C[C@@H]4C[C@H](O)CC[C@]4(C)[C@H]3C[C@H](O)[C@]12C | TRUE |
| C[C@H](CCC(=O)O)[C@H]1CC[C@H]2[C@@H]3[C@@H](O)C[C@@H]4C[C@H](O)CC[C@]4(C)[C@H]3CC[C@]12C | FALSE |
| C[C@H](CCC(=O)NCCS(=O)(=O)O)[C@H]1CC[C@H]2[C@@H]3[C@H](O)C[C@@H]4C[C@H](O)CC[C@]4(C)[C@H]3C[C@H](O)[C@]12C | FALSE |

###

systemTested: human TAS2R1 (Homo sapiens, UniProt Q9NYW7)
Construct: expressed in transfected cells; host or cells: HEK293T-Gα16gust44
Sequence (Q9NYW7 whole entry): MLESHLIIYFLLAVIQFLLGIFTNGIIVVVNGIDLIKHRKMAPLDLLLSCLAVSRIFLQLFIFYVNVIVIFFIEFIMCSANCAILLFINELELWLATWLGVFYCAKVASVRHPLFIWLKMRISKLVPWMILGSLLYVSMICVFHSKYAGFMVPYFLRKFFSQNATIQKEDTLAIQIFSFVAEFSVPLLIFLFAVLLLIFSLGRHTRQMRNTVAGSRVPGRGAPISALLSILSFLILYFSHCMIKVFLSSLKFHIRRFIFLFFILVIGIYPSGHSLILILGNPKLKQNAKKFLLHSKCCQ
experiment: Calcium imaging assay (FLIPR), HEK293T-Gα16gust44 cells transfected with human TAS2R1
Format: cell-based
settings: Time 54.796 s
Below, each entry is listed alongside its reported RLU.
measuredParameter: RLU

| compound | measuredParameter | endpointResult |
| --- | --- | --- |
| C[C@H](CCC(=O)O)[C@H]1CC[C@H]2[C@@H]3[C@H](O)C[C@@H]4C[C@H](O)CC[C@]4(C)[C@H]3C[C@H](O)[C@]12C [Cholic Acid, cholic acid] | RLU | 750.511 RLU |
| C[C@H](CCC(=O)O)[C@H]1CC[C@H]2[C@@H]3CC[C@@H]4C[C@H](O)CC[C@]4(C)[C@H]3CC[C@]12C [Lithocholic Acid, lithocholic acid] | RLU | 776.344 RLU |
| C[C@H](CCC(=O)O)[C@H]1CC[C@H]2[C@@H]3[C@@H](O)C[C@@H]4C[C@H](O)CC[C@]4(C)[C@H]3CC[C@]12C [Ursodeoxycholic Acid, ursodeoxycholic acid] | RLU | 693.141 RLU |
| C[C@H](CCC(=O)O)[C@H]1CC[C@H]2[C@@H]3[C@H](O)C[C@@H]4C[C@H](O)CC[C@]4(C)[C@H]3CC[C@]12C [Chenodeoxycholic Acid, chenodeoxycholic acid] | RLU | 936.083 RLU |

###

systemTested: human TAS2R14 (Homo sapiens, UniProt Q9NYV8)
Construct: expressed in transfected cells; host or cells: HEK293T-Gα16gust44
Sequence (Q9NYV8 whole entry): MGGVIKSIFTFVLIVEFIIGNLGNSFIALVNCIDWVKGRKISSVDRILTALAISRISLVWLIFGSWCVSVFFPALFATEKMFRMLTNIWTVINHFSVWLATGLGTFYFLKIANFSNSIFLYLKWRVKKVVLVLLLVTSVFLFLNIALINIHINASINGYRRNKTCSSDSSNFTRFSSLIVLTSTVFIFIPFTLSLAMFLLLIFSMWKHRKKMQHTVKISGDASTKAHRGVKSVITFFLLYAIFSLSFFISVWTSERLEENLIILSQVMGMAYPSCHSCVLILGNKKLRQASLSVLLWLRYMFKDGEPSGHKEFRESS
experiment: Calcium imaging assay (FLIPR), HEK293T-Gα16gust44 cells transfected with human TAS2R14
Type: cell-based
settings: lowest concentration with significantly increased fluorescence vs empty vector (p < 0.01)
measuredParameter: Activation threshold concentration TAS2R14

| smilesString | systemTested | endpointResult |
| --- | --- | --- |
| C[C@H](CCC(=O)O)[C@H]1CC[C@H]2[C@@H]3[C@H](O)C[C@@H]4C[C@H](O)CC[C@]4(C)[C@H]3C[C@H](O)[C@]12C | human TAS2R14 (Homo sapiens, UniProt Q9NYV8) | 300 µM |
| C[C@H](CCC(=O)NCC(=O)O)[C@H]1CC[C@H]2[C@@H]3[C@H](O)C[C@@H]4C[C@H](O)CC[C@]4(C)[C@H]3C[C@H](O)[C@]12C | human TAS2R14 (Homo sapiens, UniProt Q9NYV8) | 100 µM |
| C[C@H](CCC(=O)O)[C@H]1CC[C@H]2[C@@H]3[C@H](O)C[C@@H]4C[C@H](O)CC[C@]4(C)[C@H]3CC[C@]12C | human TAS2R14 (Homo sapiens, UniProt Q9NYV8) | 30 µM |
| C[C@H](CCC(=O)NCCS(=O)(=O)O)[C@H]1CC[C@H]2[C@@H]3[C@H](O)C[C@@H]4C[C@H](O)CC[C@]4(C)[C@H]3C[C@H](O)[C@]12C | human TAS2R14 (Homo sapiens, UniProt Q9NYV8) | 300 µM |
| C[C@H](CCC(=O)NCCS(=O)(=O)O)[C@H]1CC[C@H]2[C@@H]3CC[C@@H]4C[C@H](O)CC[C@]4(C)[C@H]3CC[C@]12C | human TAS2R14 (Homo sapiens, UniProt Q9NYV8) | 0.3 µM |

###

systemTested: mouse Tas2r144 (Mus musculus, UniProt Q7TQB8)
Construct: expressed in transfected cells; host or cells: HEK293T-Gα16gust44
experiment: Calcium imaging assay (FLIPR), HEK293T-Gα16gust44 cells transfected with mouse Tas2r144
Format: cell-based
settings: Time 14 s

| smilesString | systemTested | RLU |
| --- | --- | --- |
| C[C@H](CCC(=O)NCCS(=O)(=O)O)[C@H]1CC[C@H]2[C@@H]3[C@H](O)C[C@@H]4C[C@H](O)CC[C@]4(C)[C@H]3C[C@H](O)[C@]12C | mouse Tas2r144 (Mus musculus, UniProt Q7TQB8) | 38.5551 RLU |
| C[C@H](CCC(=O)NCCS(=O)(=O)O)[C@H]1CC[C@H]2[C@@H]3CC[C@@H]4C[C@H](O)CC[C@]4(C)[C@H]3CC[C@]12C | mouse Tas2r144 (Mus musculus, UniProt Q7TQB8) | -10.556 RLU |
| C[C@H](CCC(=O)NCC(=O)O)[C@H]1CC[C@H]2[C@@H]3[C@H](O)C[C@@H]4C[C@H](O)CC[C@]4(C)[C@H]3C[C@H](O)[C@]12C | mouse Tas2r144 (Mus musculus, UniProt Q7TQB8) | -0.4257 RLU |
| C[C@H](CCC(=O)O)[C@H]1CC[C@H]2[C@@H]3[C@H](O)C[C@@H]4C[C@H](O)CC[C@]4(C)[C@H]3C[C@H](O)[C@]12C | mouse Tas2r144 (Mus musculus, UniProt Q7TQB8) | 52.0817 RLU |
